# Target Of Assay: TRPC4 (Homo sapiens, UniProt Q9UBN4)
# Construct: expressed in transfected cells
# Sequence (Q9UBN4 1-982 isoform Q9UBN4-5): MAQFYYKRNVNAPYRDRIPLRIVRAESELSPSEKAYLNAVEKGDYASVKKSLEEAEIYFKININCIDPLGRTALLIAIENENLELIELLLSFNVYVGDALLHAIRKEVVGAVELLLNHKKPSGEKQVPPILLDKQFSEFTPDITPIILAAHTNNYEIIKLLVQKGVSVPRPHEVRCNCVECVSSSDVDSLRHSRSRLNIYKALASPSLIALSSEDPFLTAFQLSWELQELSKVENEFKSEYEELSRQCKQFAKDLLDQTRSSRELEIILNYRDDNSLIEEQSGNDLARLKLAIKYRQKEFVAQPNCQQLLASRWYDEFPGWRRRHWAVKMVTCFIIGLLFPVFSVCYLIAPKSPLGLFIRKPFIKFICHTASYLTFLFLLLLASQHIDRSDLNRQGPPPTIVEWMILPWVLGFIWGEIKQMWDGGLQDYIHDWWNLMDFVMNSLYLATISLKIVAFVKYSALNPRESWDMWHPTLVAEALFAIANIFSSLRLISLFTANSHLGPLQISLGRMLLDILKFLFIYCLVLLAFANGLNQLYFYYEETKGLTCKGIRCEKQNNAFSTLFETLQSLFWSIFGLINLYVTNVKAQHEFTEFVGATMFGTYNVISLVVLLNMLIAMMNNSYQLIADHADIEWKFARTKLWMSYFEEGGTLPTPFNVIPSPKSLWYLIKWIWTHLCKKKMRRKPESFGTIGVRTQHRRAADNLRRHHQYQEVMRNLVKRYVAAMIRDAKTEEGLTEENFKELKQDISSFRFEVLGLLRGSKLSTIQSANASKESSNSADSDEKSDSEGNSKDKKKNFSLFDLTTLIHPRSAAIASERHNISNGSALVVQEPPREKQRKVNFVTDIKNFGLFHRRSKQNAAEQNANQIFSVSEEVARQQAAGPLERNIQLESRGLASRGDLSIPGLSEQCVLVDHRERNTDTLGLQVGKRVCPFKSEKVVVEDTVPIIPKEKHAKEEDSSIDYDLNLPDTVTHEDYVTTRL
# Assay Protocol: TRPC4 activity assay (FLIPR calcium fluorescence, HEK-TREx hTRPC4 cells)
# Type: cell-based
# Cond: Table 6, HEK-TREx hTRPC4; read-out: hTRPC4-FLIPR IC50
pIC50: −log10 of the molar value.
Outcome Measure: pIC50

[[record]]
molecule = "CC(c1ccc(F)cc1C(F)(F)F)N1CCN(c2cn[nH]c(=O)c2Cl)CC1=O (single isomer, unassigned)"
meas_value = "6.00 to 11.00"

[[record]]
molecule = "CCc1ncccc1[C@H](C)N1CCN(c2cn[nH]c(=O)c2Cl)CC1"
meas_value = "6.00 to 11.00"

[[record]]
molecule = "CCc1ncccc1N(CC)C1CCN(c2cn[nH]c(=O)c2Cl)CC1"
meas_value = "6.00 to 11.00"


* * *

# Target Of Assay: TRPC5 (Homo sapiens)
# Construct: expressed in transfected cells
# Sequence (Q9UL62 whole entry): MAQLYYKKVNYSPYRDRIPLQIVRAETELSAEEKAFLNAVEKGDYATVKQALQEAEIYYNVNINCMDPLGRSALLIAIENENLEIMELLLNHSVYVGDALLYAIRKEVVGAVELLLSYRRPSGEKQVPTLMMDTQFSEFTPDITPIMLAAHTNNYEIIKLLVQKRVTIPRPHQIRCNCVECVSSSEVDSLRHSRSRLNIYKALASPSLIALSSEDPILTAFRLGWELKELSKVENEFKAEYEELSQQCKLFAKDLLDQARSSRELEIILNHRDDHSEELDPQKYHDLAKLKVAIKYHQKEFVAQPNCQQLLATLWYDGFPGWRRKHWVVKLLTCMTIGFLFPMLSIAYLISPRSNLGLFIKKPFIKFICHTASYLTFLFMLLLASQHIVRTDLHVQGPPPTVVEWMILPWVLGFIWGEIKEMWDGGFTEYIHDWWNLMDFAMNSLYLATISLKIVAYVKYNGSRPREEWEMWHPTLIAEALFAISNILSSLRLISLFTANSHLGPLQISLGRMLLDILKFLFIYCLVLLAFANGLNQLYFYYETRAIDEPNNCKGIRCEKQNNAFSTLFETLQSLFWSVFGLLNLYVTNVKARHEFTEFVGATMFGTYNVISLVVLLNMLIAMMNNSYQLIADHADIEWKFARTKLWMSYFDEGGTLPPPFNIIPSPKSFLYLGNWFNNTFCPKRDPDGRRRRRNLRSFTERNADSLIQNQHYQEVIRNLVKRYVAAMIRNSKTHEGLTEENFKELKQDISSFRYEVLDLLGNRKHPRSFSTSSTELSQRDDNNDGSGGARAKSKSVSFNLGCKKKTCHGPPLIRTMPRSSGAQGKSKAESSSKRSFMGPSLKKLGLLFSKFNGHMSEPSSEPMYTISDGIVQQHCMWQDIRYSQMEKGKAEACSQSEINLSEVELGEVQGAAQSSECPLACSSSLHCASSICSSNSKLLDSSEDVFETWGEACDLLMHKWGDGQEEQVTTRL
# Assay Protocol: Automated patch clamp assay, HEK293 cells overexpressing TRPC5, current block after rosiglitazone stimulation
# Assay type: cell-based
# Cond: whole cell automated patch, 100 mV, read-out: TRPC5_QP_X50_100
pIC50: −log10 of the molar value.
Outcome Measure: pIC50

[[record]]
molecule = "O=C1CN(c2cn[nH]c(=O)c2Cl)CCN1Cc1ccccc1C(F)(F)F [AO]"
outcome_measure = "pIC50"
meas_value = "6.00 to 11.00"

